# assay.procedure: physchem
# condition.set: 8.1% (w/v) G3.0-PEG-dA in PBS, aqueous with cosolvent or surfactant or cyclodextrin, thermodynamic from solid, saturated concentration (solubility), in the presence of G3.0-PEG-dA (8.1% w/v in PBS; DH formulation), room temperature
assay.readout: solubility

compound: Brc1c(NC2=NCCN2)ccc2nccnc12 [brimonidine]
recorded.measurement: 696 µg/mL

* * *

# assay.procedure: physchem
# condition.set: PBS, aqueous buffer, thermodynamic from solid, saturated concentration (solubility), plain PBS, room temperature
assay.readout: solubility (µg/mL)

molecule: Brc1c(NC2=NCCN2)ccc2nccnc12 [brimonidine]
unit.of.measurement: µg/mL
recorded.measurement: 392

Origin of values: patent US20110189291A1
